Entry source: PubChem BioAssay (NCI)

# System: SK-MEL-28 melanoma
# measurement description: NCI-60 one-dose screen, 48 h (100 = growth as untreated, 0 = no growth, -100 = all killed)
# run parameters: 10 µM unless noted
Compounds without any hit were thinned out: in the full panel of roughly 83,000, 20% have a hit.
Recorded growth by entry
Give your result in % as a bare value.

# molecule C=C1CC2(OC1=O)C(=O)N(CCCCCCCCCCCCN1C(=O)C3(CC(=C)C(=O)O3)c3ccccc31)c1ccccc12 (centres undefined) ; its growth = 89.3

# molecule N=c1c2ccccc2nc2n1CCCCC2 ; its growth = 103

# molecule Cn1c2ccccc2c2c3[nH]c(=O)[nH]c(=O)c3c3c4ccccc4n(C)c3c21 ; its growth = 27.2

# molecule Cc1nn(-c2ccccc2)c2nc(C)n(-c3ccc(Br)cc3)c(=O)c12 ; its growth = 69.3

# molecule O=C(/C=C/c1cc2ccccc2[nH]c1=O)/C=C/c1cc2ccccc2[nH]c1=O ; its growth = 37.9

# molecule C/C(Cc1ccc(Cl)cc1)=C(\c1ccc(OCCN2CCCCCC2)cc1)c1ccc(OC(=O)C2CCCCC2)cc1 ; its growth = 61.2

# molecule O=C1/C(=C/c2ccccc2)CN(CCC(=O)N2C/C(=C\c3ccccc3)C(=O)/C(=C/c3ccccc3)C2)C/C1=C\c1ccccc1 ; its growth = 91.9

# molecule COc1ccc2nc3cc(Cl)ccc3c(N3CCN(c4ccnc(N5CCOCC5)n4)CC3)c2c1 ; its growth = 35.9

# molecule Clc1nc(Cl)c2c3c(sc2n1)CCCC3 ; its growth = 55.1
